FYI, the data here is from patent US20220306695A1.

molecular target: Human C3 (human, UniProt P01024 23-1663); experiment: cell-based or functional assay
Sequence (P01024 23-1663 limits assumed): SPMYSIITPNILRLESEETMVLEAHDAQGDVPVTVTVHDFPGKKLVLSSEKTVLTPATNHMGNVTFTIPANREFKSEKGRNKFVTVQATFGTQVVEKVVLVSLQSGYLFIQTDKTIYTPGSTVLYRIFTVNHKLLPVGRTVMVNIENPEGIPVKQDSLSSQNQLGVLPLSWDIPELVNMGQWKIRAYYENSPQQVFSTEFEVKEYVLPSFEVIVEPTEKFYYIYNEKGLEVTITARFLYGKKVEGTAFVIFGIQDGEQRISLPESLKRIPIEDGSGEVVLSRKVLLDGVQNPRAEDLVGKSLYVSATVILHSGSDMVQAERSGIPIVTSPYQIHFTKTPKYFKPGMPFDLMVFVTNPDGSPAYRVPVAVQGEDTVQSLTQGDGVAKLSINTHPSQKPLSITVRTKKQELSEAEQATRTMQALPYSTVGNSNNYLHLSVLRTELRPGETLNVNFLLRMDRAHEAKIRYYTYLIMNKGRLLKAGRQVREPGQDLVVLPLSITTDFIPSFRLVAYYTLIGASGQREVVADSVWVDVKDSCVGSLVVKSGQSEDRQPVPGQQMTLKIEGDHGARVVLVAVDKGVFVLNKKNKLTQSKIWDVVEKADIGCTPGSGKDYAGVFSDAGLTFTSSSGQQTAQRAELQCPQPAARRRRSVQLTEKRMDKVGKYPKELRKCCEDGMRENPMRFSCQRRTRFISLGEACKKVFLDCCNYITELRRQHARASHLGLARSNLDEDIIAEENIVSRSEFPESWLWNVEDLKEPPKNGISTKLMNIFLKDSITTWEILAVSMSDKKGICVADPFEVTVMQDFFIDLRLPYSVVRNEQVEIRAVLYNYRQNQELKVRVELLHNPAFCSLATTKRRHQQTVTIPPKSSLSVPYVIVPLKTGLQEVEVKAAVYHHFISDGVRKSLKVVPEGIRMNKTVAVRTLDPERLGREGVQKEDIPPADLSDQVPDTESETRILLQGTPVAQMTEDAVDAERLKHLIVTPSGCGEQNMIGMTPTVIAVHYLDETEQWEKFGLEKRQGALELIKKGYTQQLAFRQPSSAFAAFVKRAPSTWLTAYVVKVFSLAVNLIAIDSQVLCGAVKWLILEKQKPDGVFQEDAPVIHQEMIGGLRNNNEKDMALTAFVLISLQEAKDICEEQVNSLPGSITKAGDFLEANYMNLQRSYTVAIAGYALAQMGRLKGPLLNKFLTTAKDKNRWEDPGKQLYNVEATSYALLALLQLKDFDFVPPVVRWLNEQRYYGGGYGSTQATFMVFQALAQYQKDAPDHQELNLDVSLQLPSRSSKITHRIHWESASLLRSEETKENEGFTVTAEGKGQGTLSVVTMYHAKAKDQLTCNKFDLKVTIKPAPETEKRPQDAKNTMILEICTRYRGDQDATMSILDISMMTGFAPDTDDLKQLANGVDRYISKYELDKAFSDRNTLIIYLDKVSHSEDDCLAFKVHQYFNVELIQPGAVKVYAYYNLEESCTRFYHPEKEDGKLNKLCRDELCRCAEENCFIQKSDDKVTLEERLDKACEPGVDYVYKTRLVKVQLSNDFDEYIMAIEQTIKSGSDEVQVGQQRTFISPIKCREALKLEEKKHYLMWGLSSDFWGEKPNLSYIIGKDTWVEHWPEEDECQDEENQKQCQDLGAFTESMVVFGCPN
Positions of bridges follow the written chain, without caps; N, C: chain ends.
CP hemolysis IC50 reference
Respond with the bare value in nM.

{"binder": "Ac-ICIWQDWGEHRCS-NH2 (disulfide 2-12; SMILES CC[C@H](C)[C@H](NC(C)=O)C(=O)N[C@H]1CSSC[C@@H](C(=O)N[C@@H](CO)C(N)=O)NC(=O)[C@H](CCCNC(=N)N)NC(=O)[C@H](Cc2c[nH]cn2)NC(=O)[C@H](CCC(=O)O)NC(=O)CNC(=O)[C@H](Cc2c[nH]c3ccccc23)NC(=O)[C@H](CC(=O)O)NC(=O)[C@H](CCC(N)=O)NC(=O)[C@H](Cc2c[nH]c3ccccc23)NC(=O)[C@H]([C@@H](C)CC)NC1=O) [Compound 21]", "CP hemolysis IC50 [nM]": 77}

In one line, give reported CP hemolysis IC50 of the entry Ac-ICIWQDWGSHRCT-NH2 (disulfide 2-12; SMILES CC[C@H](C)[C@H](NC(C)=O)C(=O)N[C@H]1CSSC[C@@H](C(=O)N[C@H](C(N)=O)[C@@H](C)O)NC(=O)[C@H](CCCNC(=N)N)NC(=O)[C@H](Cc2c[nH]cn2)NC(=O)[C@H](CO)NC(=O)CNC(=O)[C@H](Cc2c[nH]c3ccccc23)NC(=O)[C@H](CC(=O)O)NC(=O)[C@H](CCC(N)=O)NC(=O)[C@H](Cc2c[nH]c3ccccc23)NC(=O)[C@H]([C@@H](C)CC)NC1=O) [Compound 6] .
140
